measurement_protocol: label from the status in PepcDB records
observed_property: protein production

• MDKIHAMQLFIRVADLESFSRAAETLALPKGSVSRQIQALESHLGVRLLHRTTRRVQLTQDGMVYYERAKDLLSNLDELDGMFQHDPASISGRLRVDMPVGFAKKMVIPHLPTFLQQYPGIELELSSSDRQVDVIREGFDCVVRVGALKDSGLIARPLGKLTQINCASPDYLARFGYPQSLEDLADHALIHYASTLGVRPPGFEVMIDGAVRWVKTGGILTVNSTETYQAACIAGLGIIQVPRTGVREALRAGDLIEILPQYRAEPLPVSLIYPHRRNLSRRVNLFMEWLGGLMKAYVD = failed
• MAGLAARLVLLAGAAALASGSQGDREPVYRDCVLQCEEQNCSGGALNHFRSRQPIYMSLAGWTCRDDCKYECMWVTVGLYLQEGHKVPQFHGKWPFSRFLFFQEPASAVASFLNGLASLVMLCRYRTFVPASSPMYHTCVAFAWVSLNAWFWSTVFHTRDTDLTEKMDYFCASTVILHSIYLCCVRTVGLQHPAVVSAFRALLLLMLTVHVSYLSLIRFDYGYNLVANVAIGLVNVVWWLAWCLWNQRRLPHVRKCVVVVLLLQGLSLLELLDFPPLFWVLDAHAIWHISTIPVHVLFFSFLEDDSLYLLKESEDKFKLD = failed
